Target: HRgpA-6H (Porphyromonas gingivalis) (UniProt P28784)
Assay: ELISA on coated HRgpA-6H; also: test concentration or dose not given here
Documented OD450nm across a set of binders
// no unit, no text: just the number

As a guide, the following entries are already answered.
KB001 mouse Fab FASEBA VH Y106K (Fab, V domains shown) VH: EVQLKQSGPGLVAPSQSLSITCTVSGFSLSIYSVHWVRQPPGKGLEWLGMIWGGGSSDYNSALKSRLSISKDNSKSQVFLKMNSLQTDDTAMYYCARNGNFYAMDKWGQGTSVTVSS VL: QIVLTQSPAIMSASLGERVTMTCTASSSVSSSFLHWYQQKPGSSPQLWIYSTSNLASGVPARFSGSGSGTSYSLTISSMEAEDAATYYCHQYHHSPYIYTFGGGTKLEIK	0.807
KB001 mouse Fab FASEBA VH S61N (Fab, V domains shown) VH: EVQLKQSGPGLVAPSQSLSITCTVSGFSLSIYSVHWVRQPPGKGLEWLGMIWGGGSSDYNNALKSRLSISKDNSKSQVFLKMNSLQTDDTAMYYCARNGNFYAMDYWGQGTSVTVSS VL: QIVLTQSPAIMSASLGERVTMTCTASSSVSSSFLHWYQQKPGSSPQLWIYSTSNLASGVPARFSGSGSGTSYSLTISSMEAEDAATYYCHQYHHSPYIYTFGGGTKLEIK	0.537

Now take the following binder into account.
stdin: For KB001 mouse Fab FASEBA VH N60S (Fab, V domains shown) VH: EVQLKQSGPGLVAPSQSLSITCTVSGFSLSIYSVHWVRQPPGKGLEWLGMIWGGGSSDYSSALKSRLSISKDNSKSQVFLKMNSLQTDDTAMYYCARNGNFYAMDYWGQGTSVTVSS VL: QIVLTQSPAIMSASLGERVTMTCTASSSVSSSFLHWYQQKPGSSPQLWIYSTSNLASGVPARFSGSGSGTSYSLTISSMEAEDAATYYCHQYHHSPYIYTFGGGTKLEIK , write its OD450nm.
stdout: 0.452

Cited source for all entries: patent US20230365662A1
